Target: T1, hPRLR.mmh (soluble monomeric human PRLR) (human)
T1 construct: soluble monomeric PRLR protein
T1 chain: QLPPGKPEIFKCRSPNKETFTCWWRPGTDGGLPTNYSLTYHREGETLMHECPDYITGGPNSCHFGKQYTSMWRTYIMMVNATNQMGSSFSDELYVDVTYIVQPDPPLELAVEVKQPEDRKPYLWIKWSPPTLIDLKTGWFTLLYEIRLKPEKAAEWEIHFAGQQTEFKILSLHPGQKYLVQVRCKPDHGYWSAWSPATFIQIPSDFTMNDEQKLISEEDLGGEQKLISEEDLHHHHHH
Assay: SPR (Biacore), antibody capture, 37 C
pKd: −log10 of the molar value.
Use 8 as the dividing line for pKd, with the line itself on the 1 side and lower values as -1.

Some solved cases for reference:
H1H6976N (antibody, human IgG1, V domains shown, also called H2M6976N) VH: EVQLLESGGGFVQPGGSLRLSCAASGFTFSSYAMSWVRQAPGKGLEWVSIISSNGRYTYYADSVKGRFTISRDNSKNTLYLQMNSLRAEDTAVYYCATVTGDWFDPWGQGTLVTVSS VL: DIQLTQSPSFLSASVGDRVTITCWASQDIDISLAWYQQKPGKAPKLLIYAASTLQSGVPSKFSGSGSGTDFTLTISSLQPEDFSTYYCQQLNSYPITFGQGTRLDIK | 1
H1H6795P (antibody, human IgG1, V domains shown, human IgG1 Fc (H1H)) VH: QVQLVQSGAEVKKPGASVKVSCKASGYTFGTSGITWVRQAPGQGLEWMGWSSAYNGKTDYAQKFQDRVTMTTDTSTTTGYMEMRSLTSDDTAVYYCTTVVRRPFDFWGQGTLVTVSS VL: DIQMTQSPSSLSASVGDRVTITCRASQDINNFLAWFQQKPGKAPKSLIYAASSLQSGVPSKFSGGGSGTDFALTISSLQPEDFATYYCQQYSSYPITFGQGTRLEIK | 1
H1H6782P (antibody, human IgG1, V domains shown, human IgG1 Fc (H1H)) VH: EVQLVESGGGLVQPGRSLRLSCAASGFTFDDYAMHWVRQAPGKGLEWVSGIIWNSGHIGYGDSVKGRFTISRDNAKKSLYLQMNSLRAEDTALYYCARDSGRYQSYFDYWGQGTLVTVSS VL: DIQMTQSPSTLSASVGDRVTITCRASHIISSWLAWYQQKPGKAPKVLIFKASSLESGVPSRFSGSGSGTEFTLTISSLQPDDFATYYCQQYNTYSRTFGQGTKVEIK | 1

Can H1H6959N2 (antibody, human IgG1, V domains shown, also called H2M6959N2) VH: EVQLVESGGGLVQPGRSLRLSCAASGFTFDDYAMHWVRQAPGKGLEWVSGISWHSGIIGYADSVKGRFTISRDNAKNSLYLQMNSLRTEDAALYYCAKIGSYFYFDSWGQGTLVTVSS VL: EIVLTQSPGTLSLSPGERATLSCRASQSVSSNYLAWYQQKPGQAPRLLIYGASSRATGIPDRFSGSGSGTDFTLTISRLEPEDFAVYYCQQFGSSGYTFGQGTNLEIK be said to have pKd at or above 8?
-1

Can H1H6762P (antibody, human IgG1, V domains shown, human IgG1 Fc (H1H)) VH: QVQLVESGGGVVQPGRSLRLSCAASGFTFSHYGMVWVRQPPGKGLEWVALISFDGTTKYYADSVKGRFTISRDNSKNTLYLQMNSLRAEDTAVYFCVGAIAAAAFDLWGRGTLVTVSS VL: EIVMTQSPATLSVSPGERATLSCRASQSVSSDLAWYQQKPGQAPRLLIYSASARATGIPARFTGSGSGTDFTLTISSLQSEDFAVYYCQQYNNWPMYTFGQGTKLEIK be said to have pKd at or above 8?
1

Can H1H6790P (antibody, human IgG1, V domains shown, human IgG1 Fc (H1H)) VH: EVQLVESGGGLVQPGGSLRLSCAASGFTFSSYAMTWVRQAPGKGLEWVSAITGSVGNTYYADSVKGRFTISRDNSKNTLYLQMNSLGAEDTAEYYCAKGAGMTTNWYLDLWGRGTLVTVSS VL: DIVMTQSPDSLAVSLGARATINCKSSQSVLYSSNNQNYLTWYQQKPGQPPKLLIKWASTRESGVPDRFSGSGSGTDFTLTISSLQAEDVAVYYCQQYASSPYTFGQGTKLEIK be said to have pKd at or above 8?
1
